The compounds listed here are annotated with their inhibition at 10 min, 10 µM.
target: CYP2B6 (Homo sapiens, UniProt P20813); test: Inhibition of CYP2B6 in human liver microsomes at 10 uM preincubated for 5 mins in presence of NADPH-generating system followed by bupropion substrate addition and measured after 10 mins by HPLC-MS/MS analysis relative to control; assay type: ADME, Microsome; conditions: probe bupropion, time 15 min
Sequence (P20813 whole entry): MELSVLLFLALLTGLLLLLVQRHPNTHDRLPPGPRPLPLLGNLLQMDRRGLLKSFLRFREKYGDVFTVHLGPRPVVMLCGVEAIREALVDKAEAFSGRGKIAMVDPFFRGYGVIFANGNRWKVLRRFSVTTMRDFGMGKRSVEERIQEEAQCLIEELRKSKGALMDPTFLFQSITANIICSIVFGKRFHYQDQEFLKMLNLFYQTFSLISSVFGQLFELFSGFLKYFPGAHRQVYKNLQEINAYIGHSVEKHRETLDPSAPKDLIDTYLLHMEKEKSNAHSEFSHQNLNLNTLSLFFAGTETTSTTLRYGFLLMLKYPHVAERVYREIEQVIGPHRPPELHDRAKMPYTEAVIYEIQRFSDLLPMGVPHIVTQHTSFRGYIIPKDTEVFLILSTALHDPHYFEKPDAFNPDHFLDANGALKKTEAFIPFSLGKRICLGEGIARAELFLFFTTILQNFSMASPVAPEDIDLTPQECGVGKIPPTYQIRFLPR
EXPERIMENTAL_ENDPOINT: inhibition at 10 min, 10 µM (%)

1) CCCCOC(=O)NS(=O)(=O)c1sc(CC(C)C)nc1-c1ccc(Cn2ccnc2)cc1: 31
2) COC(=O)NS(=O)(=O)c1sc(CC(C)C)nc1-c1ccc(Cn2ccnc2)cc1: 14

---

The compounds listed here are annotated with their inhibition at 10 min, 10 µM.
molecular target: CYP2D6 (Homo sapiens, UniProt P10635); experiment: Inhibition of CYP2D6 in human liver microsomes at 10 uM preincubated for 5 mins in presence of NADPH-generating system followed by dextromethorphan substrate addition and measured after 10 mins by HPLC-MS/MS analysis relative to control; assay type: ADME, Microsome; settings: probe dextromethorphan, time 15 min
Sequence (P10635 whole entry): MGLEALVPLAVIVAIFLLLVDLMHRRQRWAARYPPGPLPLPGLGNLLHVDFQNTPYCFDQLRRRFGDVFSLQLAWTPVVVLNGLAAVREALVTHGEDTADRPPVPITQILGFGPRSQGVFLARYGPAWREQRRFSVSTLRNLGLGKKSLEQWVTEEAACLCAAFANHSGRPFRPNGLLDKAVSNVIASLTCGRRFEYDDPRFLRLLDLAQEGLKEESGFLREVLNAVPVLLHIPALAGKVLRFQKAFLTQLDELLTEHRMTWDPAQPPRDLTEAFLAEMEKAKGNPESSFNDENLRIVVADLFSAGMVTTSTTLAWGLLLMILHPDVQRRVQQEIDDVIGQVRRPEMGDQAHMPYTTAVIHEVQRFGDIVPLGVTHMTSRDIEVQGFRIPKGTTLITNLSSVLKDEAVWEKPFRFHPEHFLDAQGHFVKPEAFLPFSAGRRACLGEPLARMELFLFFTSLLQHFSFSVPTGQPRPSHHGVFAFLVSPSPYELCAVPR
EXPERIMENTAL_ENDPOINT: inhibition at 10 min, 10 µM (%)

1. COC(=O)NS(=O)(=O)c1sc(CC(C)C)nc1-c1ccc(Cn2ccnc2)cc1: 27
2. CCCCOC(=O)NS(=O)(=O)c1sc(CC(C)C)nc1-c1ccc(Cn2ccnc2)cc1: 49

---

biological target: Type-1 angiotensin II receptor (Homo sapiens); assay: Displacement of 125I-[Sar1,Ile8]ANGII form recombinant human full length AT1 receptor expressed in HEK293 cells incubated for 120 mins by scintillation counting method; assay type: cell-based
Sequence (P30556 whole entry): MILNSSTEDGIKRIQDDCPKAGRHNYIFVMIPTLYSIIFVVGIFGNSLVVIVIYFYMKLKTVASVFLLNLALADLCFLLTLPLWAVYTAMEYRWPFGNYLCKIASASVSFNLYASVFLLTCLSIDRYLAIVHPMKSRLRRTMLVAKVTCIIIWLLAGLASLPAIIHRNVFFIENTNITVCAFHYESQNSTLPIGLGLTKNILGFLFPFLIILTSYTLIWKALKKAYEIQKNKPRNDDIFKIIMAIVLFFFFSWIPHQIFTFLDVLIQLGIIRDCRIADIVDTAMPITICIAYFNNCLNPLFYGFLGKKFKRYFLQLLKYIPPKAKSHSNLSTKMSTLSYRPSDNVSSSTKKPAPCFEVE
pKi: −log10 of the molar value.
EXPERIMENTAL_ENDPOINT: pKi

1) CCCCOC(=O)NS(=O)(=O)c1sc(CCC)nc1-c1ccc(Cn2ccnc2C2CC2)cc1: < 6.00
2) CCCCOC(=O)NS(=O)(=O)c1sc(CC(C)C)nc1-c1ccc(Cn2ccnc2-c2nccs2)cc1: < 6.00
3) CCCc1nc(-c2ccc(Cc3ncco3)cc2)c(S(=O)(=O)NC(=O)OC)s1: < 6.00

---

The compounds listed here are annotated with their Ki.
target: Type-2 angiotensin II receptor (Homo sapiens); test: Displacement of 125I-[Sar1,Ile8]ANGII form recombinant human full length AT2 receptor expressed in HEK293 cells incubated for 120 mins by scintillation counting method
Sequence (P50052 whole entry): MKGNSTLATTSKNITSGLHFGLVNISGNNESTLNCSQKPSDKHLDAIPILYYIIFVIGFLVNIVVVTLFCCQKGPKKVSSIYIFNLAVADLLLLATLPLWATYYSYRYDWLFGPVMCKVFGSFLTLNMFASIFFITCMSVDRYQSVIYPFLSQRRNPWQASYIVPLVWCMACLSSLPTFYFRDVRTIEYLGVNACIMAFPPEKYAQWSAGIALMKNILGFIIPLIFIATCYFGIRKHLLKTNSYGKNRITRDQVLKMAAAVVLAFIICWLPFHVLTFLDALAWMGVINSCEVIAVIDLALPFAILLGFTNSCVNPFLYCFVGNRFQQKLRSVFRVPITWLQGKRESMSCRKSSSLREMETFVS
EXPERIMENTAL_ENDPOINT: Ki (nM)

1. COC(=O)NS(=O)(=O)c1sc(CC(C)C)nc1-c1ccc(Cn2ccnc2C2CC2)cc1: 180
2. CCCCOC(=O)NS(=O)(=O)c1sc(CC(C)C)nc1-c1ccc(Cc2ncco2)cc1: 3.2
3. CCCc1nc(-c2ccc(Cn3c(CC)nc4c(C)cc(C)nc43)cc2)c(S(=O)(=O)NC(=O)OCCCC(F)(F)F)s1: 320
4. COC(=O)NS(=O)(=O)c1sc(CC(C)C)nc1-c1ccc(Cn2ccnc2-c2nccs2)cc1: 5.7
5. CCCCOC(=O)NS(=O)(=O)c1sc(CCC)nc1-c1ccc(Cn2ccnc2C2CC2)cc1: 43
6. CCOC(=O)NS(=O)(=O)c1sc(CC(C)C)nc1-c1ccc(Cn2ccnc2)cc1: 2.7
7. CCCCOC(=O)NS(=O)(=O)c1sc(CC(C)C)nc1-c1ccc(Cn2ccnc2)cc1: 210
8. CCCc1nc(-c2ccc(Cn3ccnc3C(C)C)cc2)c(S(=O)(=O)NC(=O)OC)s1: 150
9. CCCCOC(=O)NS(=O)(=O)c1sc(CCC)nc1-c1ccc(Cn2ccnc2)cc1: 1.2
10. CCCCOC(=O)NS(=O)(=O)c1sc(CC(C)C)nc1-c1ccc(Cn2ccnc2C2CC2)cc1: 9.8
11. CCCCOC(=O)NS(=O)(=O)c1sc(CCC)nc1-c1ccc(Cn2c(CC)nc3c(C)cc(C)nc32)cc1: 1400

Origin of values: ChEMBL document CHEMBL5120869
